From: ChEMBL document CHEMBL1138367

# protocol: Drug level in CD1 mouse urine assessed as unmetabolized fractions at 3 mmol/kg, po
# Type: ADME, tissue-based
# testConditions: read-out: Activity
quantityMeasured: dose excreted

| smiles | resultValue |
| --- | --- |
| O=C(CN1C(=O)c2ccccc2S1(=O)=O)Nc1ccc(O)cc1 | 0.9% |

====

# System: Mus musculus
# protocol: Analgesic activity in CD1 mouse assessed as acetic acid-induced writhing at 1 mmol/kg, po after 1 hr
# Type: functional

| smiles | unitsText | Activity |
| --- | --- | --- |
| O=C(CCCN1C(=O)c2ccccc2S1(=O)=O)Nc1ccc(O)cc1 | % | 28.9 |
| O=C(CCN1C(=O)c2ccccc2S1(=O)=O)Nc1ccc(O)cc1 | % | 43.8 |
| O=C(CCCCCN1C(=O)c2ccccc2S1(=O)=O)Nc1ccc(O)cc1 | % | 53.72 |
| O=C(CN1C(=O)c2ccccc2S1(=O)=O)Nc1ccc(O)cc1 | % | 62.42 |
| CC(=O)Nc1ccc(O)cc1 | % | 61.32 |
| O=C(CCCCN1C(=O)c2ccccc2S1(=O)=O)Nc1ccc(O)cc1 | % | 32.56 |

====

# log10(Activity) values compiled below
# System: Mus musculus
# protocol: Hepatotoxicity in mouse assessed as plasma GPT levels at 3.7 mmol/kg, po after 24 hrs
# Format: toxicity, organism-based
# testConditions: in vivo
quantityMeasured: log10(Activity) (log10 of the value in U/ml)

| smiles | resultValue |
| --- | --- |
| O=C(CCCCCN1C(=O)c2ccccc2S1(=O)=O)Nc1ccc(O)cc1 | 1.47 |
| CC(=O)Nc1ccc(O)cc1 | 2.48 |
| O=C(CCCCN1C(=O)c2ccccc2S1(=O)=O)Nc1ccc(O)cc1 | 1.65 |
| O=C(CN1C(=O)c2ccccc2S1(=O)=O)Nc1ccc(O)cc1 | 1.48 |
| O=C(CCCN1C(=O)c2ccccc2S1(=O)=O)Nc1ccc(O)cc1 | 1.92 |
| O=C(CCN1C(=O)c2ccccc2S1(=O)=O)Nc1ccc(O)cc1 | 1.46 |

====

# protocol: Hepatotoxicity in C57BL/6 mouse
# Format: toxicity, organism-based
# testConditions: in vivo
quantityMeasured: LD50

| smiles | resultValue |
| --- | --- |
| CC(=O)Nc1ccc(O)cc1 | 3700 µmol/kg |
